// data source = patent US20250228835A1

Below, each entry is listed with its recorded EC50.
- TARGET DESC: UniProt P21439
- PROTOCOL DETAILS: ABCB4 WT assay: HiBit protein expression
- SETTINGS: HEK-293 cells stably expressing HiBit-tagged ABCB4 WT; 24 h treatment; top concentration 30 μM; read-out: ABCB4 WT EC50, Emax

Ask | Param item = CNS(=O)(=O)c1ccc(-c2cncc(Cl)c2)nc1Oc1c(C)cc(C)cc1C ; retrieve measured EC50.
Reply | < 1 µM

Ask | Next compound: Cc1cc(C)c(Oc2nc(-c3cncc(C#N)c3)cnc2NS(C)(=O)=O)c(C)c1
Reply | ≥ 25 µM

---

- TARGET DESC: ABCB4 WT (Homo sapiens)
- Sequence (P21439 whole entry): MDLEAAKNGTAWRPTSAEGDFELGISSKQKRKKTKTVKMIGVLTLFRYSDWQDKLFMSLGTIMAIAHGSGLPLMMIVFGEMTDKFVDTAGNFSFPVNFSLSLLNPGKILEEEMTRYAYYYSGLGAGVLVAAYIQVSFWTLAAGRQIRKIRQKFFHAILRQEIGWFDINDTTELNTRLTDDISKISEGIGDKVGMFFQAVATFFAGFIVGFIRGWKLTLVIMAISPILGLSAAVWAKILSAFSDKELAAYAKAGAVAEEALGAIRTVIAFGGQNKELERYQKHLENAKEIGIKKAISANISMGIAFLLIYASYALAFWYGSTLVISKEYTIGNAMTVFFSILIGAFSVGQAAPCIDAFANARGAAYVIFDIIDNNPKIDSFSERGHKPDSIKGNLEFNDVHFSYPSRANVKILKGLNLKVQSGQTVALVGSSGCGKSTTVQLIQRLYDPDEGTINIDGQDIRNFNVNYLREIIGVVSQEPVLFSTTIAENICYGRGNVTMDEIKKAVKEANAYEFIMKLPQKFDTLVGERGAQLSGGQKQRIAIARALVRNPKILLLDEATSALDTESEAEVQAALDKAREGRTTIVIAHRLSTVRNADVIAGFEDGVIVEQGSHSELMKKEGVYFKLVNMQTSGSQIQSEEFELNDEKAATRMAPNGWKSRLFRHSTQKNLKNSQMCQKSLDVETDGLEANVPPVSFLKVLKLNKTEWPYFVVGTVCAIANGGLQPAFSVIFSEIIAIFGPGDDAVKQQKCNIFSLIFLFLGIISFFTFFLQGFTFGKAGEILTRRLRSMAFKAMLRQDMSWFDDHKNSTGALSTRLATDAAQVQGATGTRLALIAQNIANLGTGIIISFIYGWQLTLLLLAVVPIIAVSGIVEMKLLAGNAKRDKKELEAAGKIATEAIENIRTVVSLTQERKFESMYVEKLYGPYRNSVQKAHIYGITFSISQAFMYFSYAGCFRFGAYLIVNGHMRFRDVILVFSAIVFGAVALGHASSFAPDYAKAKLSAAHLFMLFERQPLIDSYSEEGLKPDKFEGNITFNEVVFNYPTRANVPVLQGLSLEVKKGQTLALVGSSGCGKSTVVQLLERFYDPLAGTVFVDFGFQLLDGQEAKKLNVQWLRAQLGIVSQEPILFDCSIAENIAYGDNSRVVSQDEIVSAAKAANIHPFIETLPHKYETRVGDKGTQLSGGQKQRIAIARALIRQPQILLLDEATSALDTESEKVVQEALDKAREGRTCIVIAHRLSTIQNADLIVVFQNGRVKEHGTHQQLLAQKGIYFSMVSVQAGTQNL
- PROTOCOL DETAILS: ABCB4 WT assay: HiBit protein expression
- SETTINGS: HEK-293 cells stably expressing HiBit-tagged ABCB4 WT; 24 h treatment; top concentration 30 μM; read-out: ABCB4 WT EC50, Emax
- Description: To assess activity against ABCB4, compounds were screened in an assay measuring protein expression, using cells transfected with cDNA encoding HiBit-tagged ABCB4 wild-type. […] Dose response curves include eleven doses with the top final concentration at 30 μM in 0.3% DMSO. […] The plates are rotated at room temperature for 2 minutes and incubated for 1 hour at 25° C. before luminescent signal is acquired using an EnVision Multimode Plate Reader (PerkinElmer). […]
MEASURE: EC50

Known EC50 results, listed for orientation:
COMPOUND: Cc1nc(C(F)(F)F)nc(C2CC2)c1Oc1nc(-c2cncc(C#N)c2)ccc1N(C)S(C)(=O)=O [Compound I-142]
EC50: ≥ 25 µM
--
COMPOUND: Cc1cc(C)c(Oc2nc(N3CCC(C#N)C3)ccc2NS(C)(=O)=O)c(C)c1 (single isomer, unassigned) [Compound I-261]
EC50: 1 to 10 µM
--
COMPOUND: Cc1nc(C(F)F)nc(C2CC2)c1Oc1nc(-c2cncc(C#N)c2)ccc1S(=O)(=O)NC1CC1 [Compound I-314]
EC50: 1 to 10 µM
--
COMPOUND: Cc1cc(C)c(Oc2nc(N3CCN(S(=O)(=O)C4CC4)CC3)ccc2NS(C)(=O)=O)c(C)c1 [Compound I-44]
EC50: ≥ 25 µM
--
COMPOUND: Cc1cc(C)c(Oc2nc(-c3cncc(Cl)c3)ccc2NS(C)(=O)=O)c(C2CC2)c1 [Compound I-57]
EC50: < 25 µM
--
COMPOUND: Cc1cc(C)c(Oc2nc(-c3cncc(Cl)c3)ccc2NS(=O)(=O)C2CC2)c(C)n1 [Compound I-238]
EC50: < 25 µM
--
COMPOUND: Cc1nc(C(F)(F)F)nc(C2CC2)c1Oc1nc(-c2cncc(C#N)c2)ccc1NS(C)(=O)=O [Compound I-145]
EC50: < 1 µM
--
COMPOUND: Cc1cc(C)c(Oc2cc(-c3cncc(Cl)c3)cnc2NS(C)(=O)=O)c(C)c1 [Compound I-60]
EC50: ≥ 25 µM
--
COMPOUND: Cc1cc(C)c(Oc2nc(-c3cncc(Cl)c3)ccc2S(=O)(=O)NCc2cc(C(F)(F)F)ccn2)c(C)c1 [Compound I-87]
EC50: 1 to 10 µM
--
COMPOUND: Cc1cc(Oc2nc(-c3cncc(C#N)c3)ccc2NS(C)(=O)=O)nn1C [Compound I-113]
EC50: < 25 µM

Ask | Param item = Cc1cc(C(F)(F)F)nc(C2CC2)c1Oc1nc(-c2cncc(C#N)c2)ccc1NS(=O)(=O)C1CC1 [Compound I-140] ; retrieve measured EC50.
Reply | < 1 µM

Ask | Next compound: Cc1cc(C)c(Oc2nc(-n3cnc(C)c3)ccc2NS(C)(=O)=O)c(C)c1 [Compound I-12]
Reply | < 25 µM

Ask | Next compound: Cc1nc(C)c(Oc2nc(-c3cncc(C(F)(F)F)c3)ccc2NS(C)(=O)=O)c(C)n1 [Compound I-192]
Reply | < 25 µM

Ask | Next compound: CCS(=O)(=O)N(C)c1ccc(-c2cncc(C#N)c2)nc1Oc1c(C)cc(C(F)(F)F)nc1C1CC1 [Compound I-148]
Reply | < 1 µM

Ask | Next compound: COc1ccc2nc[nH]c2c1S(=O)(=O)Nc1ccc(-c2cncc(Cl)c2)nc1Oc1c(C)cc(C)cc1C [Compound I-63]
Reply | ≥ 25 µM

---

- TARGET DESC: ABCA4 P1380L (Homo sapiens, UniProt P78363, P1380L)
- Construct: expressed in transfected cells
- Sequence (P78363 whole entry P1380L): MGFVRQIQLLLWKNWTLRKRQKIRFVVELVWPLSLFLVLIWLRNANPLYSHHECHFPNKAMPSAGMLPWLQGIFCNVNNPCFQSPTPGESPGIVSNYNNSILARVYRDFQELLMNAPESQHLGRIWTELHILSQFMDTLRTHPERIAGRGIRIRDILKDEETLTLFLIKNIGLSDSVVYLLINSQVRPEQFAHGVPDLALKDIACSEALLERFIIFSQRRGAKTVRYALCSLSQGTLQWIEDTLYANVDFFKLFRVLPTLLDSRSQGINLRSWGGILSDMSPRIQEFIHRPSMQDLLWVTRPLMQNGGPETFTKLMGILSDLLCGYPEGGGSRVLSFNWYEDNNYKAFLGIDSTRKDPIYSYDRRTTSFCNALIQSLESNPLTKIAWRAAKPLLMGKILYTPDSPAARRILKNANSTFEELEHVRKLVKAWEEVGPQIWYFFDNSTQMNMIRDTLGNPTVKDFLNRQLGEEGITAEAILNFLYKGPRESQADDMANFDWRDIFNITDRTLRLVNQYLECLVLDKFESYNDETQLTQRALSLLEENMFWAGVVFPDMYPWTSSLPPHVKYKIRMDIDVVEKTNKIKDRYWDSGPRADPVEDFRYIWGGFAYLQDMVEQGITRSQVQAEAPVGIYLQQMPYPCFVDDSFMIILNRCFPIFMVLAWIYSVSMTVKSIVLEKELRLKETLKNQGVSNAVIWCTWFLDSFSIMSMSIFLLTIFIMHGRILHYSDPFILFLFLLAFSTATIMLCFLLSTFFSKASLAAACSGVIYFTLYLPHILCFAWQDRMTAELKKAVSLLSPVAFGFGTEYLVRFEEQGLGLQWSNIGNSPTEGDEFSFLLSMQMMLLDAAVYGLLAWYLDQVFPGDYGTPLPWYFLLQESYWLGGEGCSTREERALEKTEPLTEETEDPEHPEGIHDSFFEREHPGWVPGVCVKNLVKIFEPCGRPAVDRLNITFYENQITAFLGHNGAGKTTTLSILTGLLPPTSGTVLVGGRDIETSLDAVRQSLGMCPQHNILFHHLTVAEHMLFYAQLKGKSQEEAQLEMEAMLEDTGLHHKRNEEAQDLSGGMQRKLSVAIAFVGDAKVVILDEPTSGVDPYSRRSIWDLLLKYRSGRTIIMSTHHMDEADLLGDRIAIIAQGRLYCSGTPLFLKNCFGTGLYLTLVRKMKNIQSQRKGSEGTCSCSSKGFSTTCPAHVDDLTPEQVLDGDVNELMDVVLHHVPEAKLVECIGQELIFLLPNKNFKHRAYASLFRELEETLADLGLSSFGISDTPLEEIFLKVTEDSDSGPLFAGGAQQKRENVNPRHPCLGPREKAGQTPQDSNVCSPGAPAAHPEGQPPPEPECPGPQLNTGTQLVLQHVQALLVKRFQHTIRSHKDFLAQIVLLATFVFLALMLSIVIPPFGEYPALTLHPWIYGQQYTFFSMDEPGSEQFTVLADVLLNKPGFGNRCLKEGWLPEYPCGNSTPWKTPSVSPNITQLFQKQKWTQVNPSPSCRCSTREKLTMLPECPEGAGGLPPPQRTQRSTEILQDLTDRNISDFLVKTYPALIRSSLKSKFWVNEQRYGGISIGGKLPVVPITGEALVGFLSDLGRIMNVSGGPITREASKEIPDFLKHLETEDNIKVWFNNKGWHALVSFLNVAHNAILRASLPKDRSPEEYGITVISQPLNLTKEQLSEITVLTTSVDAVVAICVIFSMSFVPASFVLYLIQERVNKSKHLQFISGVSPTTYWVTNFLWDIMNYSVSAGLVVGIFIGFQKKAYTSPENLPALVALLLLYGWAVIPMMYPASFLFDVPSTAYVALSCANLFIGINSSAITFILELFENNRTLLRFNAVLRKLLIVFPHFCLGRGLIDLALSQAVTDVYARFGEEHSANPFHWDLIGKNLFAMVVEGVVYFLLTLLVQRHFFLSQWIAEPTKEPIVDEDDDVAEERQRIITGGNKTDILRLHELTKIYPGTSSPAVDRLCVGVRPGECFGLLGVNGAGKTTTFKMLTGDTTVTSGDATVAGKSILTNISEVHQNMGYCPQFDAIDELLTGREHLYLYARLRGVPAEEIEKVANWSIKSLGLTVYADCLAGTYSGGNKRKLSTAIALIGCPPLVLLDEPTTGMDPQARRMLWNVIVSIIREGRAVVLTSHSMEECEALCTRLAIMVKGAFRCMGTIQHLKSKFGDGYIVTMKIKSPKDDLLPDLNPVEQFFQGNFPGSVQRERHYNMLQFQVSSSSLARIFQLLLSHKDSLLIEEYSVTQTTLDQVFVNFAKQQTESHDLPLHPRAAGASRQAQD
- PROTOCOL DETAILS: A4 correction dose-response assay: ABCA4 P1380L HiBit protein expression
- Format: cell-based
- SETTINGS: HEK-293 cells stably expressing HiBit-tagged ABCA4 P1380L; 24 h treatment; top concentration 30 μM; read-out: ABCA4 P1380L EC50, Emax
pEC50: −log10 of the molar value.
Below, each entry is listed with its recorded pEC50.

COMPOUND STRING: Cc1cc(C)c(Oc2nc(N3CCN(C(=O)C4CC4)CC3)ccc2NS(C)(=O)=O)c(C)c1
TARGET DESC: ABCA4 P1380L (Homo sapiens, UniProt P78363, P1380L)
pEC50: < 4.60

Ask | Param item = Cc1cc(C)c(Oc2nc(-c3cncc(C#N)c3)ccc2NS(=O)(=O)C2CCC2)c(C)c1 ; retrieve measured pEC50.
Reply | > 4.60

Ask | Next compound: Cc1cc(C)c(Oc2nc(-c3cncc(Cl)c3)ccc2N(C)S(=O)(=O)c2cccnc2)c(C2CC2)c1
Reply | 5.00 to 6.00

Ask | Next compound: CCCS(=O)(=O)Nc1ccc(-c2cncc(C#N)c2)nc1Oc1c(C)cc(C)nc1C
Reply | 5.00 to 6.00

---

Below, each entry is listed with its recorded EC50.
- TARGET DESC: ABCA4 P1380L (Homo sapiens, UniProt P78363, P1380L)
- Construct: expressed in transfected cells
- PROTOCOL DETAILS: A4 correction dose-response assay: ABCA4 P1380L HiBit protein expression
- Format: cell-based
- SETTINGS: HEK-293 cells stably expressing HiBit-tagged ABCA4 P1380L; 24 h treatment; top concentration 30 μM; read-out: ABCA4 P1380L EC50, Emax

MOLECULE: Cc1cc(C(F)F)nc(C2CC2)c1Oc1nc(-c2cncc(C#N)c2)ccc1N(C)S(=O)(=O)C1CC1 [Compound I-134]
TARGET DESC: ABCA4 P1380L (Homo sapiens, UniProt P78363, P1380L)
OBSERVED: > 25 µM

MOLECULE: Cc1cc(C)c(Oc2cc(-c3cncc(Cl)c3)ncc2NS(C)(=O)=O)c(C)c1 [Compound I-56]
TARGET DESC: ABCA4 P1380L (Homo sapiens, UniProt P78363, P1380L)
OBSERVED: > 25 µM

MOLECULE: Cc1nc(Oc2nc(-c3cncc(C#N)c3)ccc2NS(C)(=O)=O)c(C2CC2)s1 [Compound I-300]
TARGET DESC: ABCA4 P1380L (Homo sapiens, UniProt P78363, P1380L)
OBSERVED: < 25 µM

Ask | // fetch ABCA4 P1380L (Homo sapiens, UniProt P78363, P1380L) EC50 for Cc1cc(C(F)(F)F)nc(C2CC2)c1Oc1nc(-c2cncc(C#N)c2)ccc1S(=N)(=O)c1cccnn1 (stereo not drawn) [Compound I-296]
Reply | < 1 µM

Ask | Next molecule: Cc1cc(C)c(Oc2nc(-c3cccc(Cl)c3)ccc2S(N)(=O)=O)c(C)c1 [Compound I-102]
Reply | < 1 µM

Ask | Next molecule: Cc1cc(C)c(Oc2nc(-c3cncc(Cl)c3)ccc2S(=O)(=O)Nc2cnn(C)c2)c(C)c1 [Compound I-94]
Reply | 1 to 10 µM

Ask | Next molecule: Cc1cc(C(F)F)nc(C)c1Oc1nc(-c2cncc(C#N)c2)ccc1NS(=O)(=O)C1CC1 [Compound I-199]
Reply | < 1 µM

Ask | Next molecule: COCc1cncc(-c2ccc(NS(C)(=O)=O)c(Oc3c(C)cc(C)nc3C)n2)c1 [Compound I-231]
Reply | 1 to 10 µM

Ask | Next molecule: Cc1cc(C)c(Oc2nc(-c3cncc(C#N)c3)ccc2N(C)S(=O)(=O)c2cccnc2)c(C2CC2)n1 [Compound I-136]
Reply | 1 to 10 µM

Ask | Next molecule: Cc1cc(C)c(Oc2nc(-c3cncc(C4CN(C)C4)c3)ccc2NS(C)(=O)=O)c(C)n1 [Compound I-194]
Reply | 10 to 25 µM

Ask | Next molecule: Cc1cc(C)c(Oc2nc(N3CCn4c(C)nnc4C3)ccc2NS(C)(=O)=O)c(C)c1 [Compound I-21]
Reply | > 25 µM

Ask | Next molecule: COC1CC(NS(=O)(=O)c2ccc(-c3cncc(Cl)c3)nc2Oc2c(C)cc(C)cc2C)C1 (stereo not drawn) [Compound I-78]
Reply | 1 to 10 µM

Ask | Next molecule: Cc1cc(C)c(Oc2nc(-c3cncc(Cl)c3)ccc2NS(=O)(=O)c2cccnc2)c(C2CC2)c1 [Compound I-54]
Reply | < 25 µM

Ask | Next molecule: Cc1cc(C(F)(F)F)nc(C2CC2)c1Oc1nc(-c2cncc(C#N)c2)ccc1S(=O)(=O)NC1CC1 [Compound I-133]
Reply | < 1 µM

Ask | Next molecule: Cc1nc(C(F)(F)F)nc(C2CC2)c1Oc1nc(-c2cncc(C#N)c2)ccc1N(C)S(C)(=O)=O [Compound I-142]
Reply | > 25 µM
